Some compounds, each annotated with its measured Binding constant.
Tested on: Calf thymus DNA
protocol notes: Scatchard binding constant between calf thymus DNA (CT-DNA) measured in 30 mM Tris HCl buffer at pH 7.5
Assay type: nucleic-acid assay
measurement conditions: Bos taurus
Please reply with the bare figure in M⁻¹ and do not write the unit itself.

Worked cases, answers included:
Which Binding constant value is on record for CN(C)CCN1C(=O)c2cccc3cc4nc(N)sc4c(c23)C1=O ?
25600

Try this compound next: CN(C)CCN1C(=O)c2cccc3c2c(cc2nc(N)sc23)C1=O
19800

Try this compound next: CN(C)CCCN1C(=O)c2cccc3cc4nc(N)sc4c(c23)C1=O
47300

Moving on to another compound below.
Which Binding constant value is on record for CN(C)CCCN1C(=O)c2cccc3c2c(cc2nc(N)sc23)C1=O ?
28700
